Reported LogEC50 is given for each of the following binders.
- TARGET: T1, human G-protein-coupled receptor family C group 5 member D (GPRC5D) (human, UniProt Q9NZD1 1-345)
- T1 construct: whole, on cells; also called human GPRC5D protein
- T1 sequence (Q9NZD1 whole entry): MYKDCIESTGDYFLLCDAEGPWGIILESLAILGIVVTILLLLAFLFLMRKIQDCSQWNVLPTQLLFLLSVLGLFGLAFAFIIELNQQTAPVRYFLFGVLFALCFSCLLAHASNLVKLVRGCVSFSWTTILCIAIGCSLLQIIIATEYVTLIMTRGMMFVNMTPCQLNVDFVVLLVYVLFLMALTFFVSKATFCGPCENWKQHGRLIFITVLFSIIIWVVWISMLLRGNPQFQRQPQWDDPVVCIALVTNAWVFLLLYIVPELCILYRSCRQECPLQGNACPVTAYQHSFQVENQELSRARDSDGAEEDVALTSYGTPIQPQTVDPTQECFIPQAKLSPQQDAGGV
- ASSAY_OVERVIEW: FACS, CHO-K1/GPRC5D
Could you respond with only the numeric value?

BINDER: 34-H1L4 (antibody, V domains shown, humanized 34D3H1, VH v1 x VL v4) VH: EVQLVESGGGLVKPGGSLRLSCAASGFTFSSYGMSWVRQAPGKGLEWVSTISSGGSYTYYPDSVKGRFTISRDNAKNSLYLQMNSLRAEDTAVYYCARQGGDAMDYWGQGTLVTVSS VL: DIVLTQSPSSLSVSVGDRVTLTCRASQSINNNLHWYQQKPGKSPKLLIYYASQSISGIPSRFSGSGSGTDFTLTISSVQPEDFATYFCQQSNSRLTFGGGTKLEIK
LogEC50: 0.6
--
BINDER: 34-H3L1 (antibody, V domains shown, humanized 34D3H1, VH v3 x VL v1) VH: EVHLVESGGGLVKPGGSLRLSCAASGFTFSSYGMSWVRQTPGKRLEWVATISSGGSYTYYPDSVKGRFTISRDNAKNSLNLQMSSLRAEDTAVYYCARQGGDAMDYWGQGTLVTVSS VL: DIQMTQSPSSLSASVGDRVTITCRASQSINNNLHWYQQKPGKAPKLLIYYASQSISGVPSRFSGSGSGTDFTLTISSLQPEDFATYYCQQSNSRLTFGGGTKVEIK
LogEC50: 0.521

Now look at this entry.
So what's the measured LogEC50 for this one? 34-H2L4 (antibody, V domains shown, humanized 34D3H1, VH v2 x VL v4) VH: EVQLVESGGGLVKPGGSLRLSCAASGFTFSSYGMSWVRQTPGKGLEWVATISSGGSYTYYPDSVKGRFTISRDNAKNSLYLQMSSLRAEDTAVYYCARQGGDAMDYWGQGTLVTVSS VL: DIVLTQSPSSLSVSVGDRVTLTCRASQSINNNLHWYQQKPGKSPKLLIYYASQSISGIPSRFSGSGSGTDFTLTISSVQPEDFATYFCQQSNSRLTFGGGTKLEIK
0.609

Reference source: patent US12281162
